experiment: photoluminescence quantum yield (fraction); solvent given as SMILES; conditions: in C1COCCO1
We begin with a simple list: items and their reported photoluminescence quantum yield.
No unit in the answer, please; the number alone is enough.

Worked cases, answers included:
* COc1ccc(C2=C/C(=C\c3ccccc3)C(=O)N2)cc1OC | 0.108
* C(=C\c1ccc(N(c2ccccc2)c2ccccc2)cc1)/c1ccc(-c2cc(-c3ccccn3)nc(-c3ccccn3)c2)cc1 | 0.46
* CC(=O)Nc1ccc(C2=C/C(=C\c3ccc(C#N)cc3)C(=O)N2CC(C)C)cc1 | 0.218
* F[B-]1(F)n2ccnc2-c2cccc[n+]21 | 0.28
* F[B-]1(F)n2c(nc(-c3ccccc3)c2-c2ccccc2)-c2cccc[n+]21 | 0.26

Please examine the following record next.
Q: Consider the molecule shown here: "CC(C)CCC[C@@H](C)[C@H]1CC[C@H]2[C@@H]3CC=C4C[C@@H](OC(=O)Oc5cc(/C=C/C=C/c6ccc(N(C)C)cc6)ccc5[N+](=O)[O-])CC[C@]4(C)[C@H]3CC[C@]12C" What is its recorded photoluminescence quantum yield?
Result: 0.08
